Data provenance is the supplement of paper PMC10567573.

B1: TRIM43 (parent)
chain: YQEIFQQLQRSWVKMDQKSKHLKE

# Variants of: B1
# experiment notes: protein stability index of a GFP-peptide fusion (GPS, HEK-293T) (PSI 1-6); higher = more stable;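 note: lentivirally expressed fusions sorted by FACS into six bins by GFP to DsRed ratio, PSI derived from sequencing read proportions per bin multiplied by bin number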
# experimental context: c terminus: a fixed tail appended
property name: protein stability index
Just the number, please, no unit attached.

Query: Record request: protein stability index value, item L22Y
Response: 1.92

Query: Try S11I next.
Response: 2.57

Query: Follow-up item: L8K
Response: 3.1

Query: Queued: E3P
Response: 1.69

Query: Item: R10I
Response: 2.95

Query: Try this variant next: I4S
Response: 1.94

Query: Ok, now K23Q
Response: 2.11

Query: And S11L ?
Response: 2.21

Query: Another: K23G
Response: 2.54

Query: Follow-up entry: D16L
Response: 3.47

Query: Again, but for Q9C
Response: 1.4

Query: Same question for M15H please.
Response: 2.29

Query: Entry Q2I please
Response: 1.52

Query: Could you do the same for Q17M , please?
Response: 1.73

Query: Now give it for K20N too.
Response: 2.44

Query: // next record V13P
Response: 2.62

Query: // query: Q2F
Response: 1.55

Query: // query: Q6Y
Response: 2.65

Query: Now the same for K18I
Response: 1.37

Query: Repeat with M15R
Response: 2.5

Query: Then what about the variant Q6P ?
Response: 2.28

Query: Also check E24L
Response: 2.45
